Assay Target: human NGF (Homo sapiens, UniProt P01138)
Sequence (P01138 122-241): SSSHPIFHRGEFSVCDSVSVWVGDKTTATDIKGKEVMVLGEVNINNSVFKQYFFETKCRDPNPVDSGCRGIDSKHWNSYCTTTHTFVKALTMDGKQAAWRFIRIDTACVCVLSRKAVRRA
Assay Comment: BIAcore screening assay of Fab library clones (koff)
Type: binding
Measurement Conditions: Table 3: heavy chain library clones paired with 6D5 light chain
Outcome Measure: koff (s⁻¹)
Numbers only, in s⁻¹.

{"Molecule": "H18: heavy chain library clone, CDRH1 SEQ ID NO:36, CDRH2 SEQ ID NO:37 (antibody, V domains shown) VH: QVQLQESGPGLVKPSETLSLTCTVSGFSLIGYDATWIRQPPGKGLEWIGGIWGDGTTDYNSAVKSRVTISKDTSKNQFSLKLSSVTAADTAVYYCARGGYYYGTSYYFDYWGQGTLVTVS VL: DIQMTQSPSSLSASVGDRVTITCRASQDISNHLNWYQQKPGKAPKLLIYYISRFHSGVPSRFSGSGSGTDFTFTISSLQPEDIATYYCQQSKTLPYTFGQGTKLEIKRT", "koff / s⁻¹": 0.00042}

(Q) What value of koff has been recorded for this entry: H222: heavy chain library clone, CDRH1 SEQ ID NO:32, CDRH2 SEQ ID NO:33 (antibody, V domains shown) VH: QVQLQESGPGLVKPSETLSLTCTVSGFSLIGYDVTWIRQPPGKGLEWIGGIWGDGTTDYNSAVKSRVTISKDTSKNQFSLKLSSVTAADTAVYYCARGGYYYGTSYYFDYWGQGTLVTVS VL: DIQMTQSPSSLSASVGDRVTITCRASQDISNHLNWYQQKPGKAPKLLIYYISRFHSGVPSRFSGSGSGTDFTFTISSLQPEDIATYYCQQSKTLPYTFGQGTKLEIKRT
(A) 0.00038

Sourced from patent US20080182978A1
